protocol_details: chemical genetic growth profiling, strain panel (AID 1159580);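 also: tested at 20 µM; growth read once vehicle control cultures reached saturation at 30 °C; 1 = growth at the plate median or of vehicle wells; lower values mean less growth of the strain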
condition: S. cerevisiae deletion strains, growth OD, locus YJL129C, strain trk1, hits give low values
Screen size: about 5,500 compounds; about 2,000 (36%) were called active. About 18% were inconclusive and are not listed. This is one part of the list.
readout_kind: normalized growth
// return just the number, without any unit appended

Some compounds with known normalized growth results, for comparison:
compound | normalized growth
CS(=O)(=O)Nc1ccc([N+](=O)[O-])cc1Oc1ccccc1 | 0.979
O=C(O)c1cc(O)c2c(c1)[C@@H]([C@H]1c3cc(C(=O)O)cc(O)c3C(=O)c3c(O[C@H]4O[C@H](CO)[C@@H](O)[C@H](O)[C@H]4O)cccc31)c1cccc(O[C@H]3O[C@H](CO)[C@@H](O)[C@H](O)[C@H]3O)c1C2=O | 1.04
COC(=O)c1c(C)c2c(c(C)c1O)OC(=O)c1c(C)c(Cl)c(O)c(Cl)c1O2 | 0.9
C/C1=C/CC(C)(C)/C=C/C/C(C)=C/CC1 | 0.981
COc1ccc([C@@H]2CC(=O)c3c(O)cc(O[C@@H]4O[C@H](CO[C@H]5O[C@@H](C)[C@H](O)[C@@H](O)[C@H]5O)[C@@H](O)[C@H](O)[C@H]4O)cc3O2)cc1O | 1.01
C[C@H](CCC(=O)O)[C@H]1CCC2C3C(=O)CC4CC(=O)CC[C@]4(C)C3CC(=O)[C@@]21C (some centres undefined) | 0.962
CC(C)c1ccc2c(c1)CCC1C(C)(C(N)=O)CCCC21C (centres undefined) | 0.905
Cc1cn[nH]c1 | 1.06
CC(CCC(=O)O)[C@H]1CCC2C3CC[C@@H]4C[C@H](O)CC[C@]4(C)C3C=C[C@@]21C (some centres undefined) | 0.879
CC1=CC(=O)c2c(O)cccc2C1=O | 0.653

Next compound, normalized growth to be filled in.
### Prompt Please look up its normalized growth: `Cc1scc2c1N(C(=O)CN1CCN(C)CC1)c1ccccc1NC2=O`
### Response 0.948

----------
protocol_details: chemical genetic growth profiling, strain panel (AID 1159580)
condition: S. cerevisiae deletion strains, growth OD, locus YNL307C, strain MCK1, hits give low values
Hit rate of the full screen: of about 5,500 compounds, about 2,000 (36%) were called active. Not shown: some 18% with an inconclusive outcome. The list shows a part of the results.
readout_kind: normalized growth
Could you keep your reply to the number by itself?

Look over these answered cases.
substance_smiles | readout_kind | recorded_result
CS(=O)(=O)c1ccc([C@@H](O)[C@@H](CO)NC(=O)C(Cl)Cl)cc1 | normalized growth | 0.985
CCCc1cc(=O)[nH]c(=S)[nH]1 | normalized growth | 0.998

### Prompt Look at this compound and give its reported normalized growth. `COc1cc(C/C=C/c2ccccc2)c(OC)cc1O`
### Response 0.955

### Prompt Here is the next compound: `CC(=O)Oc1ccc(C(c2ccc(OC(C)=O)cc2)c2ccccn2)cc1`
### Response 0.989

### Prompt Okay, and `NS(=O)(=O)c1cc2c(cc1Cl)NC(CSCc1ccccc1)=NS2(=O)=O` ?
### Response 0.983

### Prompt // next record `CC(=O)Oc1cccc(O)c1`
### Response 1.02

----------
protocol_details: chemical genetic growth profiling, strain panel (AID 1159580);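 also: tested at 20 µM; growth read once vehicle control cultures reached saturation at 30 °C; 1 = growth at the plate median or of vehicle wells; lower values mean less growth of the strain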
condition: S. cerevisiae deletion strains, growth OD, locus YMR078C, strain ctf18, hits give low values
Screen size: about 5,500 compounds; about 2,000 (36%) were called active. Not shown: some 18% with an inconclusive outcome. The list shows a part of the results.
Reported normalized growth is given for each of the following compounds.
Please reply with the value in numeric form only.

Guide cases for normalized growth, answers given:
compound | readout_kind | recorded_result
CC(=O)Oc1cccc(O)c1 | normalized growth | 1.02
NCC(N)C(=O)c1ccccc1 (configuration not stated) | normalized growth | 1.01
CC(=O)c1cc(CC=C(C)C)c(O)c(CC=C(C)C)c1 | normalized growth | 0.962
CCCOc1ccc2nc(NC(=O)OC)[nH]c2c1 | normalized growth | 0.979
CCN(CC)CCOC(=O)C1(C2CCCCC2)CCCCC1 | normalized growth | 0.978

### Prompt Fill blank: measured normalized growth of the compound C=C(C)C1CCC(C)(O)C2CC3OC3(C)C2C1 (configuration not stated) is ____.
### Response 1.01

----------
protocol_details: chemical genetic growth profiling, strain panel (AID 1159580);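 also: tested at 20 µM; growth read once vehicle control cultures reached saturation at 30 °C; 1 = growth at the plate median or of vehicle wells; lower values mean less growth of the strain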
condition: S. cerevisiae deletion strains, growth OD, locus YPR167C, strain met16, hits give low values
In all, about 5,500 compounds went through this assay and about 2,000 (36%) were called active. Another 18% or so got no clear call; they are omitted. The list shows a part of the results.
readout_kind: normalized growth
Please respond with just the number, no unit label.

Some compounds with known normalized growth results, for comparison:
compound | recorded_result
CC(C)CCCC(C)[C@H]1CCC2C3CC=C4C[C@@H](O)CC[C@]4(C)C3CC[C@@]21C (stereo not given in full) | 0.995
CN(C)CCCN1c2ccccc2CCc2ccc(Cl)cc21 | 0.986
CC(C)CCCC(C)[C@H]1CCC2C3CC=C4CC(=O)CC[C@]4(C)C3CC[C@@]21C (stereo not given in full) | 0.96
Nc1ccc(C(=O)O)cc1 | 1.02
CC(=O)O[C@H]1CC[C@@]2(C)C(C[C@@H](OC(C)=O)[C@@]3(C)C4=CC(=O)O[C@@H](c5ccoc5)[C@]4(C)CCC23)C1(C)C (stereo not given in full) | 0.985

### Prompt So what's the measured normalized growth for this one? CC(C)CCCC(C)C1CCC2C3=CC[C@H]4C[C@@H](O)CC[C@]4(C)C3CC[C@@]21C (stereo not given in full)
### Response 1.01

### Prompt Ok, now CC(=O)O[C@@H]1CC2C(C)(C)C(=O)C=C[C@]2(C)C2CC[C@]3(C)C(=CC(=O)O[C@H]3c3ccoc3)[C@@]21C (stereo not given in full)
### Response 0.997

### Prompt # iterate: `CN(C)CCCN1c2ccccc2Sc2ccccc21`
### Response 1.01

### Prompt # iterate: `O=C(O)c1cccnc1`
### Response 1

### Prompt Same again, this time with CC(C)CCCC(C)C1CCC2C3CC[C@H]4C[C@@H](O)CC[C@]4(C)C3CC[C@]12C (stereo not given in full)
### Response 0.994

### Prompt Okay, and `CCCN(CCC)S(=O)(=O)c1ccc(C(=O)O)cc1` ?
### Response 1.01

### Prompt Queued: `CN(C)CCCN1c2ccccc2Sc2ccc(C(F)(F)F)cc21`
### Response 0.981

### Prompt Param item: `O=C(O)C1=CCCNC1`
### Response 0.958

### Prompt Lookup CC(=O)O[C@@H]1C=C[C@@]2(C)C(C[C@@H](OC(C)=O)[C@@]3(C)C4=CC(=O)O[C@@H](c5ccoc5)[C@]4(C)CCC23)C1(C)C (stereo not given in full)
### Response 0.0608

----------
protocol_details: chemical genetic growth profiling, strain panel (AID 1159580);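 also: tested at 20 µM; growth read once vehicle control cultures reached saturation at 30 °C; 1 = growth at the plate median or of vehicle wells; lower values mean less growth of the strain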
condition: S. cerevisiae deletion strains, growth OD, locus YHR200W, strain rpn10, hits give low values
Screen size: about 5,500 compounds; about 2,000 (36%) were called active. Inconclusive results (about 18%) are left out. The list shows a part of the results.
readout_kind: normalized growth
Kindly provide the number alone.

Here is how some molecules turned out for normalized growth.
molecule | recorded_result
CC(C)c1ccc2c(c1)CCC1C(C)(C(N)=O)CCCC21C (stereo unspecified) | 0.945
CC(=O)Oc1c(Cl)c(C)c2c(c1Cl)OC(=O)c1c(C)c(Cl)c(OC(C)=O)c(Cl)c1O2 | 0.966
CCCc1cc(=O)[nH]c(=S)[nH]1 | 1.01
COC(=O)c1c(C)c2c(c(C)c1O)OC(=O)c1c(C)c(Cl)c(O)c(Cl)c1O2 | 0.993
Cc1ccc2c(c1)C1(C)CCCC(C)(C(=O)O)C1CC2 (stereo unspecified) | 1.01

### Prompt Any idea what normalized growth was measured for `CC1=CC(=O)c2ccccc2C1=O` ?
### Response 0.0601

### Prompt Entry CC12CCC(O)CC1CCC1C2[C@H](O)CC2(C)C(C3=CC(=O)OC3)CCC12O (stereo partly specified) please
### Response 0.999

### Prompt Same again, this time with `C/C1=C/CC(C)(C)/C=C/C/C(C)=C/CC1`
### Response 1.01

### Prompt Same again, this time with CC(N=C(NC#N)Nc1ccncc1)C(C)(C)C (stereo unspecified)
### Response 1.02

### Prompt Similarly, `CCOC(=O)[C@H](CCc1ccccc1)N[C@@H](C)C(=O)N1CCC[C@H]1C(=O)O` ?
### Response 1.01

### Prompt Input CC(C)=CCCC(C)C1CC[C@@]2(C)C3=C(CC[C@]12C)C1(C)CC[C@H](O)C(C)(C)C1CC3 (stereo partly specified)
### Response 1.01

### Prompt Now the molecule `CNNC`
### Response 1

### Prompt Another: `C=C1c2cccc(O)c2C(O)=C2C(=O)[C@]3(O)C(O)=C(C(N)=O)C(=O)[C@@H](N(C)C)[C@@H]3[C@@H](O)[C@H]12`
### Response 0.97

### Prompt What about this molecule? CC(=O)O[C@H]1CCC2(C)C3=C(CCC2C1(C)C)[C@@]1(C)CC[C@@H](C(C)CCC=C(C)C)[C@]1(C)CC3 (stereo partly specified)
### Response 1.03

### Prompt Entry `Oc1c(Cl)cc(Cl)cc1Sc1cc(Cl)cc(Cl)c1O` please
### Response 0.97

### Prompt Now give it for CCC(C)C(=O)OC1[C@@H]2CC3=C4CC(=O)O[C@@H](c5ccoc5)[C@]4(C)CCC3[C@@](C)(C2=O)[C@@H](CC(=O)OC)C1(C)C (stereo partly specified) too.
### Response 1

### Prompt Next: CC(C)CCCC(C)C1CC[C@@]2(C)C3=C(CC[C@]12C)[C@@]1(C)CC[C@H](O)C(C)(C)C1CC3 (stereo partly specified)
### Response 0.981

### Prompt Same lookup for `COc1c(C)c2c(c(C)c1Cl)Oc1c(Cl)c(OC)c(Cl)c(C)c1C(=O)O2` , please.
### Response 1.02
